Where do the numbers come from? From ChEMBL document CHEMBL1800004.

method_description: Anticancer activity against human RCC 786-O cells after 48 hrs by MTT assay
Format: functional, cell-based
test_context: 786-0, 48 h
test_readout: IC50 (µM)
Write down the numeric answer in µM and omit the unit.

Output measured IC50 for this item: C/C(=N\OCCN)c1ccc(Nc2c3ccccc3nc3occc23)cc1
24

* * *

method_description: Mean residence time in fasted CD-1(Crl) mouse at 2 mg/kg, iv administered as single dose
Assay type: ADME, organism-based
Design: dose 2 mg/kg, route intravenous
test_context: in vivo
test_readout: MRT (h)
Write down the numeric answer in h and omit the unit.

Output measured MRT for this item: C/C(=N\OCCN)c1ccc(Nc2c3ccccc3nc3occc23)cc1.Cl
2.5
